target: UniProt Q13191; experiment: Cbl-b inhibition assay (Cbl-b activity assay, FRET, Biological Example 1; 100 mM NaCl, 60 nM Src kinase); type: biochemical; conditions: upper bound stated in text lists; read-out: IC50 values in the Cbl-b inhibition assay of Biological Example 1
Sequence (Q13191 36-427): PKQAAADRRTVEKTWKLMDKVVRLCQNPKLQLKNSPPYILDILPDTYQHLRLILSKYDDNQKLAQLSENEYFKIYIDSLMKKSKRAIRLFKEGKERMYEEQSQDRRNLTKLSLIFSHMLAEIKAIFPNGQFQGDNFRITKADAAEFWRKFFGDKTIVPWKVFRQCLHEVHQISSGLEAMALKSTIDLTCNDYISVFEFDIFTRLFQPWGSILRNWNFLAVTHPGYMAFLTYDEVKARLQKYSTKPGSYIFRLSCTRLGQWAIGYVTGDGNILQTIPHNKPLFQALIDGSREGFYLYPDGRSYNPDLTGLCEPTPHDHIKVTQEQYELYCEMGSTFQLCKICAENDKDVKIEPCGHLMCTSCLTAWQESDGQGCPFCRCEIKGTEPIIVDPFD
Measured IC50 by item

[
  {
    "COMPOUND": "COc1nc(C(=O)Nc2cccc([C@H](C)Sc3nncn3C)c2)cc2ccccc12 [Compound 62]",
    "TARGET DESC": "UniProt Q13191",
    "IC50": "≤ 500 nM"
  }
]

// query Lab note: UniProt Q13191 assay, enter IC50 for Cc1cc(C(=O)Nc2cccc(C3=C(c4nncn4C)CCC3)c2)nc(C2CC2)n1 [Compound 518] here
// result ≤ 300 nM

// query Lab note: UniProt Q13191 assay, enter IC50 for Cn1cnnc1C[C@](C)(F)c1cccc(N2Cc3c(cccc3C(F)(F)F)C2=O)c1 [Compound 298b] here
// result ≤ 500 nM

// query Lab note: UniProt Q13191 assay, enter IC50 for Cn1cnnc1CC1(c2cccc(N3Cc4c(cc(CN5CC(C#N)C5)cc4C(F)(F)F)C3=O)c2)COC1 [Compound 423] here
// result ≤ 100 nM

// query Lab note: UniProt Q13191 assay, enter IC50 for Cn1cnnc1C(F)(F)[C@](C)(F)c1cccc(NC(=O)c2nc3c(C(F)(F)F)cccc3[nH]2)c1 [Compound 345] here
// result ≤ 300 nM

// query Lab note: UniProt Q13191 assay, enter IC50 for Cn1cnnc1CC1(c2cccc(NC(=O)c3cc(CN4CCC5(CC5)C4)cc(C4CC4)n3)c2)COC1 [Compound 519] here
// result ≤ 100 nM

// query Lab note: UniProt Q13191 assay, enter IC50 for C[C@H](Cc1nncn1C)c1cccc(N2Cc3c(cc(C(=O)N4C[C@@H](O)C[C@H]4C)cc3C(F)(F)F)C2=O)c1 [Compound 275] here
// result ≤ 100 nM

// query Lab note: UniProt Q13191 assay, enter IC50 for Cn1cnnc1CC1(c2cccc(N3Cc4c(cc(CN5CCC(C#N)CC5)cc4C(F)(F)F)C3=O)c2)COC1 [Example 628] here
// result ≤ 100 nM
